- subject of test: GPD1 (Homo sapiens)
- Construct: Red-NHS dye labelled for MST
- Sequence (P21695 1-349): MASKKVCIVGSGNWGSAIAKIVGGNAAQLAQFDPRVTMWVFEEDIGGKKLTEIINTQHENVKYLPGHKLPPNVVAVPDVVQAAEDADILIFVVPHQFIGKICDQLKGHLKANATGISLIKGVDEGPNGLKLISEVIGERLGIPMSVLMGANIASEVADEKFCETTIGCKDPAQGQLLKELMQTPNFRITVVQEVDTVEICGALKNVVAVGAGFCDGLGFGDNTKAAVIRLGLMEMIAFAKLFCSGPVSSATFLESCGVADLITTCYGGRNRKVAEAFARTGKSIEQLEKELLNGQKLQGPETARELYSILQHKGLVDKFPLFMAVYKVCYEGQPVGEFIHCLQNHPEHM
- test description: microscale thermophoresis (Monolith NT.[…], Hill fit)
reported metric: pKd
FYI, pKd means -log10 of a concentration in mol per litre.

pKd lookup needed for COc1cc(O)c2c(c1)oc(=O)c1c3cc(O)c(O)cc3oc21 [wedelolactone] , thanks.
6.30
